System: Plasmodium vinckei petteri
Test: Antimalarial activity against Plasmodium vinckei petteri 279BY infected in ip dosed Swiss mouse assessed as reduction in parasitemia administered QD for 4 days measured on day 5
Format: functional
Property Label: ED50 (mg/kg)

{"Compound": "C/C(=C(\\CCO)SSCc1ccccc1)N(C=O)CCCCCCCCCCCCN(C=O)/C(C)=C(/CCO)SSCc1ccccc1", "Limit Qualifier": "=", "Value Reported": 1.3}
{"Compound": "CCSS/C(CCOP(=O)([O-])[O-])=C(/C)N(C=O)CCCCCCCCCCCCN(C=O)/C(C)=C(/CCOP(=O)([O-])[O-])SSCC.[Li+].[Li+].[Li+].[Li+]", "Limit Qualifier": "=", "Value Reported": 1.1}
{"Compound": "C/C(=C(\\CCOP1(=O)OCc2ccccc2O1)SSCc1ccccc1)N(C=O)CCCCCCCCCCCCN(C=O)/C(C)=C(/CCOP1(=O)OCc2ccccc2O1)SSCc1ccccc1 (stereo not given)", "Limit Qualifier": ">", "Value Reported": 5}
{"Compound": "CSS/C(CCOC(=O)[C@@H](N)C(C)C)=C(/C)N(C=O)CCCCCCCCCCCCN(C=O)/C(C)=C(/CCOC(=O)[C@@H](N)C(C)C)SSC.Cl", "Limit Qualifier": "=", "Value Reported": 1}
{"Compound": "CCOP(=O)(OCC)OCC/C(SSCC)=C(\\C)N(C=O)CCCCCCCCCCCCN(C=O)/C(C)=C(/CCOP(=O)(OCC)OCC)SSCC", "Limit Qualifier": ">", "Value Reported": 1}
{"Compound": "C/C(=C(\\CCOP(=O)([O-])[O-])SSCc1ccccc1)N(C=O)CCCCCCCCCCCCN(C=O)/C(C)=C(/CCOP(=O)([O-])[O-])SSCc1ccccc1.[Li+].[Li+].[Li+].[Li+]", "Limit Qualifier": "=", "Value Reported": 3}
{"Compound": "CSS/C(CCO)=C(/C)N(C=O)CCCCCCCCCCCCN(C=O)/C(C)=C(/CCO)SSC", "Limit Qualifier": "=", "Value Reported": 0.4}
{"Compound": "C/C1=C(\\CCOC(=O)[C@@H](N)CCCCN)SS/C(CCOC(=O)[C@@H](N)CCCCN)=C(/C)N(C=O)CCCCCCCCCCCCN1C=O.Cl.Cl", "Limit Qualifier": "=", "Value Reported": 0.9}
{"Compound": "C/C1=C(\\CCO)SS/C(CCO)=C(/C)N(C=O)CCCCCCCCCCCCN1C=O", "Limit Qualifier": "=", "Value Reported": 0.9}
{"Compound": "CCCSS/C(CCO)=C(/C)N(C=O)CCCCCCCCCCCCN(C=O)/C(C)=C(/CCO)SSCCC", "Limit Qualifier": "=", "Value Reported": 0.5}
{"Compound": "Cc1c(CCOP(=O)(O)O)sc[n+]1CCCCCCCCCCCC[n+]1csc(CCOP(=O)(O)O)c1C", "Limit Qualifier": "=", "Value Reported": 0.34}
{"Compound": "CCSS/C(CCO)=C(/C)N(C=O)CCCCCCCCCCCCN(C=O)/C(C)=C(/CCO)SSCC", "Limit Qualifier": "=", "Value Reported": 1.1}
{"Compound": "CCSS/C(CCOP1(=O)OCc2ccccc2O1)=C(/C)N(C=O)CCCCCCCCCCCCN(C=O)/C(C)=C(/CCOP1(=O)OCc2ccccc2O1)SSCC (stereo not given)", "Limit Qualifier": "=", "Value Reported": 5}
{"Compound": "CC(=O)OCC/C1=C(\\C)N(C=O)CCCCCCCCCCCCN(C=O)/C(C)=C(/CCOC(C)=O)SS1", "Limit Qualifier": "=", "Value Reported": 1}
{"Compound": "CSS/C(CCOC(=O)[C@@H](N)CCCCN)=C(/C)N(C=O)CCCCCCCCCCCCN(C=O)/C(C)=C(/CCOC(=O)[C@@H](N)CCCCN)SSC.Cl.Cl", "Limit Qualifier": "=", "Value Reported": 1}
